Recorded values, source patent US7745422B2.

# Test system: Dictyostelium discoideum
# experimentNotes: D. discoideum cell growth inhibition
# Type: cell-based
# testParameters: Table 4; read-out: (1) D. discoideum IC50
readout: pIC50
Scale explanation: pIC50 corresponds to minus log10 of a concentration expressed in moles per litre.

Recorded results for 6 molecules are shown here.
[[record]]
molecule = "CCCCOc1ccc(-c2ccc[n+](CC(P(=O)([O-])O)P(=O)(O)O)c2)cc1 (stereo not shown)"
obsvalue = 5.22

[[record]]
molecule = "Cc1ccc[n+](CC(P(=O)([O-])O)P(=O)(O)O)c1 (stereo not shown)"
obsvalue = 5.36

[[record]]
molecule = "O=P([O-])(O)C(C[n+]1ccc2ccccc2c1)P(=O)(O)O (stereo not shown)"
obsvalue = 4.70

[[record]]
molecule = "O=P([O-])(O)C(O)(C[n+]1ccc2ccccc2c1)P(=O)(O)O (stereo not shown)"
obsvalue = 4.70

[[record]]
molecule = "O=C(c1ccccc1)c1ccc[n+](CC(P(=O)([O-])O)P(=O)(O)O)c1 (stereo not shown)"
obsvalue = 3.72

[[record]]
molecule = "COc1ccc[n+](CC(O)(P(=O)([O-])O)P(=O)(O)O)c1 (stereo not shown)"
obsvalue = 5.22


Then this molecule:
Find the recorded pIC50 belonging to O=P([O-])(O)C(C[n+]1ccccc1)P(=O)(O)O (stereo not shown) and report it.
5.46

* * *

Reported values of log10 of IC50 for individual entries
# Tested on: Dictyostelium discoideum
# experimentNotes: D. discoideum cell growth inhibition
# Type: cell-based
# testParameters: Table 4; read-out: (1) D. discoideum IC50
Scale type: logarithmic (base 10). Underlying IC50 unit: µM.

Recorded results for 5 compounds are shown here.
[[record]]
compound = "CC(C)=CCc1ccc[n+](CC(P(=O)([O-])O)P(=O)(O)O)c1 (centres unmarked)"
readout = "log10 of IC50"
obsvalue = 0.23

[[record]]
compound = "CCCCOc1cccc(-c2ccc[n+](CC(P(=O)([O-])O)P(=O)(O)O)c2)c1 (centres unmarked)"
readout = "log10 of IC50"
obsvalue = 0.78

[[record]]
compound = "O=P([O-])(O)C(C[n+]1ccc(-n2nnc3ccccc32)cc1)P(=O)(O)O (centres unmarked)"
readout = "log10 of IC50"
obsvalue = 1.30

[[record]]
compound = "O=P([O-])(O)C(C[n+]1cccc(C(F)(F)F)c1)P(=O)(O)O (centres unmarked)"
readout = "log10 of IC50"
obsvalue = 0.61

[[record]]
compound = "CCCCCCc1ccc[n+](CC(P(=O)([O-])O)P(=O)(O)O)c1 (centres unmarked)"
readout = "log10 of IC50"
obsvalue = 0.23


API: value(readout=log10 of IC50, system=Dictyostelium discoideum) for record O=P([O-])(O)C(C[n+]1cccc(Cl)c1)P(=O)(O)O (centres unmarked)
0.32

API: value(readout=log10 of IC50, system=Dictyostelium discoideum) for record CC([n+]1ccccc1)C(O)(P(=O)([O-])O)P(=O)(O)O (single isomer, unassigned) [Compound 591]
1.58

API: value(readout=log10 of IC50, system=Dictyostelium discoideum) for record O=P([O-])(O)C(C[n+]1cccc(-c2ccccc2)c1)P(=O)(O)O (centres unmarked)
0.40

API: value(readout=log10 of IC50, system=Dictyostelium discoideum) for record O=P([O-])(O)C(O)(CC[n+]1ccccc1)P(=O)(O)O (centres unmarked)
1.43

API: value(readout=log10 of IC50, system=Dictyostelium discoideum) for record CCOc1cccc(-c2ccc[n+](CC(P(=O)([O-])O)P(=O)(O)O)c2)c1 (centres unmarked)
0.52

API: value(readout=log10 of IC50, system=Dictyostelium discoideum) for record O=Cc1cccc(-c2ccc[n+](CC(P(=O)([O-])O)P(=O)(O)O)c2)c1 (centres unmarked)
0.61

API: value(readout=log10 of IC50, system=Dictyostelium discoideum) for record CN(C)c1cc[n+](CC(O)(P(=O)([O-])O)P(=O)(O)O)cc1 (centres unmarked)
1.49

API: value(readout=log10 of IC50, system=Dictyostelium discoideum) for record CC(C)=CCCC(C)=CCc1ccc[n+](CC(P(=O)([O-])O)P(=O)(O)O)c1 (centres unmarked)
0.38

API: value(readout=log10 of IC50, system=Dictyostelium discoideum) for record Cc1cc(C)c[n+](CC(O)(P(=O)([O-])O)P(=O)(O)O)c1 (centres unmarked)
1.43

API: value(readout=log10 of IC50, system=Dictyostelium discoideum) for record Cc1cc[n+](CC(O)(P(=O)([O-])O)P(=O)(O)O)cc1C (centres unmarked)
1.15

API: value(readout=log10 of IC50, system=Dictyostelium discoideum) for record CCCCc1ccc[n+](CC(P(=O)([O-])O)P(=O)(O)O)c1 (centres unmarked)
0.36

API: value(readout=log10 of IC50, system=Dictyostelium discoideum) for record O=P([O-])(O)C(O)(C[n+]1cccc(Cc2ccccc2)c1)P(=O)(O)O (centres unmarked)
1.04
